Tested on: UACC-257 melanoma
Test: NCI-60 one-dose screen, 48 h
Conditions: 10 µM unless noted
Compounds without any hit were thinned out: in the full panel of roughly 83,000, 20% have a hit. Calls of active or inactive are those of the source. The calls were made as follows: active = growth percent below 10; inactive = the rest.
Labels: active, inactive

{"Compound Structure String": "O=NN(CC(=O)NNc1ccccc1)CC(=O)NNc1ccccc1", "Class Label": "inactive"}
{"Compound Structure String": "O=C(OCc1ccc2c(Br)cc(Br)c(O)c2n1)c1cc2ccccc2[nH]1", "Class Label": "active"}
{"Compound Structure String": "CNC(=O)c1cc(Oc2ccc(NC(=O)c3nc(S(C)(=O)=O)sc3-c3ccc(F)cc3)cc2)ccn1", "Class Label": "inactive"}
{"Compound Structure String": "CS(=O)(=O)Nc1cc(-c2cc3ncc(C#N)c(Nc4ccc(Oc5ccccc5)c(Cl)c4)c3s2)cnc1Cl", "Class Label": "inactive"}
{"Compound Structure String": "N=c1n(Cc2ccccc2)c(N)cc(=O)n1Cc1ccccc1", "Class Label": "inactive"}
{"Compound Structure String": "C=CCN(CCOC(=O)c1ccc([N+](=O)[O-])cc1)CCOC(=O)c1ccc([N+](=O)[O-])cc1", "Class Label": "inactive"}
{"Compound Structure String": "CC(C)OC(=O)c1ccc([N+](=O)[O-])cc1", "Class Label": "inactive"}

* * *

# growth per record follows
Test system: SK-OV-3 ovarian
Assay: NCI-60 one-dose screen, 48 h (100 = growth as untreated, 0 = no growth, -100 = all killed)
Conditions: 10 µM unless noted
This is part of a sample that, as a whole, favours compounds with a hit. Of some 83,000 tested, about 20% had one in any assay.

{"Compound": "N[C@@H](CO)C(=O)O", "growth / %": 111}
{"Compound": "C/C=C(\\C)C(C(=O)NC1CCCCC1)N(C(=O)C1CCc2cc(F)ccc2O1)c1ccc([N+](=O)[O-])cc1 (configuration not stated)", "growth / %": 90.5}
{"Compound": "COc1ccc2[nH]c(O)c(/C=c3/ccc4c(c3)N=C(c3ccc(C(F)(F)F)cc3)N=4)c2c1", "growth / %": 112}
{"Compound": "O=C1OCC2=C1C(c1ccc(Cl)c(Cl)c1)c1cc3c(cc1N2CCO)CCC3 (configuration not stated)", "growth / %": 38.6}
{"Compound": "O=C(Cc1ccc(Nc2ccnc(C(F)(F)F)c2)cc1)N/N=C/c1ccccc1O", "growth / %": 17.1}
{"Compound": "CSC1=NC(=Nc2c(C)cccc2C)C2(CCC(C(C)(C)C)CC2)N1c1ccc(Cl)cc1 (configuration not stated)", "growth / %": 57.6}
{"Compound": "Brc1cccc(-n2ncc3c(Nc4ccc(-c5nnc(-c6ccccc6)o5)cc4)ncnc32)c1", "growth / %": 110}

* * *

Tested on: A498 renal
Experiment: NCI-60 one-dose screen, 48 h
Details: 10 µM unless noted
Compounds without any hit were thinned out: in the full panel of roughly 83,000, 20% have a hit. The source made the active and inactive calls. How the source made its calls: active means growth percent below 10; inactive means the rest.
Labels: YES = active, NO = inactive

{"Compound": "O=C(Nc1ccc(Oc2ccc(Nc3nc4ccccc4s3)cc2)cc1)Nc1ccc(Cl)c(C(F)(F)F)c1", "Class Label": "YES"}
{"Compound": "COc1ccc2nc(NC(=O)/C(=C/c3cc(OC)c(OC)c(OC)c3)c3ccc(OC)c(OC)c3)sc2c1", "Class Label": "NO"}
{"Compound": "CCN(CC)CCCCCCCNc1cc(OC)cc2c(C)ccnc12", "Class Label": "NO"}
{"Compound": "COc1cc2c(cc1OC)C(=O)C(Br)CC2 (stereo not drawn)", "Class Label": "NO"}
{"Compound": "CCCCCCCCCCCCCCCc1cc(O)ccc1[N+](=O)[O-]", "Class Label": "NO"}
{"Compound": "CNCCCNc1ccnc2cc(Cl)ccc12", "Class Label": "YES"}
{"Compound": "O=C(NCC(c1ccsc1)N1CCCCCC1)c1ccc(C(F)(F)F)cc1 (stereo not drawn)", "Class Label": "NO"}
{"Compound": "COc1ccccc1/C=N\\NC(=S)Nc1ccc(F)cc1", "Class Label": "NO"}

* * *

System: SW-620 colon
Experiment: NCI-60 one-dose screen, 48 h (100 = growth as untreated, 0 = no growth, -100 = all killed)
Settings: 10 µM unless noted
This is part of a sample that, as a whole, favours compounds with a hit. Of some 83,000 tested, about 20% had one in any assay.
Label F if growth falls below 90%; label T in every other case.

{"Compound": "CN1CCN(Cc2ccc(NC(=O)c3cccc(C#Cc4cnc(N)c5ncccc45)c3F)cc2C(F)(F)F)CC1", "Class Label": "F"}
{"Compound": "C#CC[C@@H]1C[C@]2(C)[C@H]3CC[C@@H]4[C@H]5C(C(=C)C)CC[C@]5(C(=O)NCCCCCCCCN)CC[C@@]4(C)[C@]3(C)CC[C@H]2C(C)(C)[C@H]1OC(C)=O (stereo not given in full)", "Class Label": "F"}
{"Compound": "CN(C)c1ccc(N2Cc3ccccc3OC3=C2C(=O)c2c(O)ccc(O)c2C3=O)cn1", "Class Label": "F"}
{"Compound": "COc1cccc(OCC(O)CN2CCN(c3ccccc3)CC2)c1 (stereo not given)", "Class Label": "T"}
{"Compound": "O=C(CN1CCN(c2ccccc2)CC1)N1CCN(c2nnc(-c3ccc(Cl)cc3)c(-c3ccc(Cl)cc3)n2)CC1", "Class Label": "F"}
{"Compound": "O=C1CC2(O)CSc3nc(=O)cc(n32)N1 (stereo not given)", "Class Label": "T"}
{"Compound": "Cc1cc(C)cc(CCCCCCCCCCCCCCCCCC(=O)O)c1", "Class Label": "T"}
{"Compound": "CCCCCCCCCCCCCCCc1cc(O)ccc1[N+](=O)[O-]", "Class Label": "T"}
{"Compound": "O=C(N=Nc1c(Cl)c(O)c2ccccc2c1O)C(=O)Nc1cccc(C(F)(F)F)c1", "Class Label": "F"}
{"Compound": "COc1ccc(/C(=C\\c2ccc3c(c2)OCO3)C(=O)Nc2nc3ccccc3s2)cc1", "Class Label": "T"}
{"Compound": "Cc1cc(C)cc(Nc2cc(C)nc3nc(C(F)(F)F)nn23)c1", "Class Label": "F"}
{"Compound": "Clc1cn2cc(-c3ccc(Cl)c(Cl)c3Cl)nc2s1", "Class Label": "T"}
{"Compound": "O=C(c1ccc(C(F)(F)F)c(Cl)c1)N(Cc1ccc(Cl)cc1)c1ccc(-c2cc(C(F)(F)F)[nH]n2)c(O)c1", "Class Label": "F"}
{"Compound": "O=C(OCc1ccc2c(Cl)cc(Cl)c(O)c2n1)c1cc2ccccc2[nH]1", "Class Label": "F"}
{"Compound": "Fc1cc(-c2nnc3sc(-c4ccc(Cl)cc4)nn23)c(Cl)cc1Cl", "Class Label": "T"}
{"Compound": "Cc1nc2ccc(Nc3nc(Cl)nc(N4CCOCC4)n3)cc2n1Cc1ccccc1", "Class Label": "F"}
{"Compound": "CCN(CC)Cc1cc(Nc2ccnc3cc(Cl)ccc23)cc(-c2ccc(Cl)cc2)c1O", "Class Label": "F"}
{"Compound": "O=C(Cc1ccc(Nc2ccnc(C(F)(F)F)c2)cc1)N/N=C/c1ccccc1O", "Class Label": "F"}
{"Compound": "NC(=S)N/N=C(/c1cccs1)C1CC1", "Class Label": "F"}
{"Compound": "O=[N+]([O-])c1ccccc1CN1CCCCC1", "Class Label": "T"}

* * *

Tested on: SF-268 CNS
Assay: NCI-60 one-dose screen, 48 h
Details: 10 µM unless noted
Compounds without any hit were thinned out: in the full panel of roughly 83,000, 20% have a hit. Activity calls are given as the source filed them. The calls were made as follows: active = growth percent below 10; inactive = the rest.
Labels: yes (active), no (inactive)

{"Molecule": "CCN(CC)CCCC(C)Nc1cnc(C(=O)Nc2ccc(Cl)c3cccnc23)cn1 (stereo not drawn)", "Class Label": "no"}
{"Molecule": "CNCCCNc1ccnc2cc(Cl)ccc12", "Class Label": "yes"}
{"Molecule": "COc1ccc(-c2nsc3c2NC(=O)CC3c2cccc(F)c2)cc1 (stereo not drawn)", "Class Label": "no"}
{"Molecule": "c1ccc(C(Nc2ccccn2)(c2ccccc2)c2ccccc2)cc1", "Class Label": "no"}
{"Molecule": "CCOc1ccc([C@@H]2[C@@H](Oc3ccccc3)C(=O)N2c2cc(OC)c(OC)c(OC)c2)cc1", "Class Label": "no"}
{"Molecule": "O=C(NNC(=S)Nc1ccccc1)c1ccc(Nc2ncnc3c2cnn3-c2cccc(Br)c2)cc1", "Class Label": "no"}
{"Molecule": "Oc1ccc(Cl)cc1-c1cc(-c2ccccc2Cl)[nH]n1", "Class Label": "no"}
{"Molecule": "C#CC[C@@H]1C[C@]2(C)[C@H]3CC[C@@H]4[C@H]5C(C(=C)C)CC[C@]5(C(=O)NCCCN5CCN(CCCN)CC5)CC[C@@]4(C)[C@]3(C)CC[C@H]2C(C)(C)[C@H]1OC(C)=O (stereo partly drawn)", "Class Label": "no"}

Ref: PubChem BioAssay (NCI)
